Measured protein stability index of individual entries
B1: NET1 (parent)
chain: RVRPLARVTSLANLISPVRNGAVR

- Variants of: B1
- Measurement notes: protein stability index of a GFP-peptide fusion (GPS, HEK-293T) (PSI 1-6); higher = more stable;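 also: lentivirally expressed fusions sorted by FACS into six bins by GFP to DsRed ratio, PSI derived from sequencing read proportions per bin multiplied by bin number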
- Conditions: c terminus: a fixed tail appended
Quick one: just the number, no unit, thanks!

INSERT INTO measurements (mutation_name, reported_result) VALUES
  ('N13F', 2.6);

Here is another variant to look at.
Would you kindly share the measured protein stability index for V8W ?
3.05
